Test: folding stability dG unfold (combined trypsin and chymotrypsin); higher = more stable
EXPERIMENTAL READOUT: folding stability dG unfold (kcal/mol)
One number for each entry, in kcal/mol.

QUERY SEQUENCE	UNIT SYMBOL	folding stability dG unfold
SAGGSSMVDIKPGLVTEIRVETLPNGERVYVVEIPLENGERAVVKISEKFKSEEEKLKAIYEAVSKSAGGSA [r2_347_JUSTAS]	kcal/mol	2.24
NIRITDIEMYPFPNNNQPQMEFTLEWPNGPRRTVEFELPGQEMEVYVDPKKGEIWFYFPNNGMFMKITIEPS [r1_125_TrROS]	kcal/mol	2.63

Next:
Enquiry: GET /values?readout=folding stability dG unfold&item= SAGDVKVITIKNPDGWQASIALNEDGTVYLMFNSPDQFLDLIEDLGFPITSVEMHPNGMMIFTIELPPSAGG [r19_257_TrROS]
Return: 3.41

* * *

Assay: folding stability dG unfold (combined trypsin and chymotrypsin); higher = more stable
Assign folding stability dG unfold to each entry below.
Give bare numbers, in kcal/mol.

Hey, can you go through the list below and give me folding stability dG unfold for every item?
1. SAGGSAGGSAGGNPGGKRQWVMMEFPIPPGKKIELPPNFNVSIFRDNDRLWLMITVDAVKSAGGSAGGSAGG [r7_584_TrROS]
2. SAGGSAGGIEAVREALEDMPPGEEKEITIPVPGDPNYYIKFTIRTKGNKIKIPIEIEPMPPGQMSAGGSAGG [r6_393_TrROS]
3. SAGGELVLLSESESVFTSPDGSRTVVRTLLTERPGDLLVEITTTTTIEPESGAVTTTTTTRVLPRRESAGGS [r8_264_JUSTAS]
4. SAGGMIRIERDGDRLTIEIHLPEGEELTPEQLEELARALLEELGPDARVVRVERLEDGTVRIEVELPSAGGS [r8_103_TrROS_Hall]

Return:
[1.9, 1.08, 2.8, 2.88]

* * *

Field: folding stability dG unfold. Provide a value for each of the sequences that follow.
Experiment: folding stability dG unfold from trypsin proteolysis; higher = more stable
Give bare numbers, in kcal/mol.

Answered cases to consult:
QUERY SEQUENCE	UNIT SYMBOL	folding stability dG unfold
SAGGSAKVKIEVSIEVSEDGTITITVRITNENGEELTVTITIKLPPAPTVVYDSEEERKKALEALASAGGSA [r15_1018_TrROS_Hall]	kcal/mol	2.9
SMKLIGVEEFENAKAVLFEKEDKYIKLVFIPEDIPEGEEIYYIKVFEGDEIIEEKAVKPEEIEEAIKEAGSA [r9_57_TrMRF]	kcal/mol	0.00129
SAGMLSVEQLLEALKEGKEILIVAESPEERERAKRLLAEELGLSEEEIDALLKKAKIKVLPADDPELKKSAG [r5_368_TrROS_Hall]	kcal/mol	1.35

Could I get folding stability dG unfold for every one of these entries?
1. SAGGSKDLEIKITKIKEWDPPNGKQTIRIPIEVYDPENGKPRPPAEELADELQKRFPGMPIKVEPVSAGGSA [r2_27_TrROS]
2. SAGGMKINPKVFGNYVLVEVENPETGSRILKLVEFNPGPKTATVKVFYIDPNGKPTLLEEKTFSLPDLSAGG [r13_768_TrMRF]
3. SAGGSKGKAPVKVRFLFLEDGKVVAEAEVEFEVEVPIPPVPPVFVPEEARKALENGDIEKALKLLGSAGGSA [r2_196_TrMRF]
4. SAGGPPWVRVVDVRIEPVEDGGERRITLTFPPDVTLEEVRERVREMLPPGAEAELTVERVEVRPVLASAGGS [r16_393_JUSTAS]

Return:
1: -0.416; 2: 1.36; 3: 0.827; 4: 1.27
